# Test Protocol: Aqueous solubility in pH 10 buffer
# Format: physicochemical
Readout Label: solubility (µg/mL)
Numbers only, in µg/mL.

// lookup solubility for O=C(Nc1ccc2ccccc2n1)c1cc[nH]n1
10.1

====

# Test Protocol: Intrinsic clearance in human microsomes
# Type: ADME, Microsome
Readout Label: microsomal CLint (µL/min/mg)
Give bare numbers, in µL/min/mg.

> print(dat)
                     input.smiles     readout.label  units.of.measure  data.value
1  O=C(Nc1ccc2ccccc2n1)c1cc[nH]n1  microsomal CLint         µL/min/mg           7

Next:
// lookup microsomal CLint for O=C(Nc1ccc(F)cn1)c1cc[nH]n1
17
